System: U251
TEST_DESCRIPTION: CellTiter-Glo cell viability assay, U251
Type: cell-based
ASSAY_CONDITIONS: Homo sapiens, U-251; GBM, U251, 72 hours
pIC50: −log10 of the molar value.
Let's look at some compounds and their measured pIC50.
OUTCOME_MEASURE: pIC50

| COMPOUND_STRUCTURE | MEASURED_VALUE |
| --- | --- |
| O=C(NO)c1ccc(Nc2nc3ccccc3n2CC2CCCCC2)cc1 | 5.80 |
| O=C(NO)c1ccc(Nc2nc3ccccc3n2C2CCCCCC2)cc1 | 5.39 |

----------
Below is a list of entries, each paired with its recorded fraction unbound value.
TEST_DESCRIPTION: % PPB, mouse
Type: in vitro ADME
ASSAY_CONDITIONS: plasma; mouse (m)
OUTCOME_MEASURE: fraction unbound

| COMPOUND_STRUCTURE | MEASURED_VALUE |
| --- | --- |
| O=C(NO)c1ccc(Nc2nc3ccccc3n2CC2CCCCC2)cc1 | 0.0045 |
| O=C(NO)c1ccc(Nc2nc3ccccc3n2C2CCCCCC2)cc1 | 0.0052 |
